Target: T1, EBV gp350 expressed on the surface of stably transfected CHO cells (Epstein-Barr virus, UniProt P03200 1-907)
T1 construct: also called native gp350; gp350 expressing CHO cells
T1 sequence: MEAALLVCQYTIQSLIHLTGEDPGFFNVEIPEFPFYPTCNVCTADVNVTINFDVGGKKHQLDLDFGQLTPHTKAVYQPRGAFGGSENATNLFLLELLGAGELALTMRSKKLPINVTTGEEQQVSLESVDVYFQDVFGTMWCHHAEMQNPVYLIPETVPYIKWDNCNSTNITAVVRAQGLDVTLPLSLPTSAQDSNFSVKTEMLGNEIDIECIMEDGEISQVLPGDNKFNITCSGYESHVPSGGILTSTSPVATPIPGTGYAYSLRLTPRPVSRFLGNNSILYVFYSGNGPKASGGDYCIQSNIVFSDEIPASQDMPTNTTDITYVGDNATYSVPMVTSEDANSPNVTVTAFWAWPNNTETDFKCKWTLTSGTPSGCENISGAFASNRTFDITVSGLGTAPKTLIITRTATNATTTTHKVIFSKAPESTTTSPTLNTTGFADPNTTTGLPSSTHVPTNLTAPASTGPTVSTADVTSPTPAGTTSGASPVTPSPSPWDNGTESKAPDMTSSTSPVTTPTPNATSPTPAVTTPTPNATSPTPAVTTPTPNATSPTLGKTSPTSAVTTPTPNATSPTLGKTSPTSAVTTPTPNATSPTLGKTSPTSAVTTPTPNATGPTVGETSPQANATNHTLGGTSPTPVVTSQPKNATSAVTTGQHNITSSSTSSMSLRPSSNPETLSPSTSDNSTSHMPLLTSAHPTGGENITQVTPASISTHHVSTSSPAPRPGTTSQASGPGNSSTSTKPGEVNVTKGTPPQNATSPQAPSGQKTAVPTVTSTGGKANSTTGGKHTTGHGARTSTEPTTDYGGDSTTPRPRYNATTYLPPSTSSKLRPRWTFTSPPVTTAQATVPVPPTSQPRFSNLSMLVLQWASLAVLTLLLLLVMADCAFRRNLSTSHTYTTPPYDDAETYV
Test: cell competition (flow), unlabeled 125 µg/ml; competitor: biotinylated m72A1 1 µg/ml
measured_endpoint: % inhibition of biotinylated nAbs

binder: HB1 (antibody, V domains shown) VH: PGLVAPSQSLSITCTVSGFLLTTYGVHWVRQPPGKGLEWLGVIWAGGSTNYNSALMSRLSINKDISKSQVFLKMNSLQTDDTAMYYCTRDRGYGYLYAMDYWGQGTSVTVSS VL: KFMSTSVGDRVSVTCKASQNVGTNVAWYQQKPGQSPKALIYSTSSRYTGVPDRFAGSGSGTDYTLTISNVQSEDLAEYFCQQYNTYPYTFGGGTRLDIKR
% inhibition of biotinylated nAbs: 81%

binder: murine 72A1 (m72A1), anti-EBV gp350 neutralizing antibody from hybridoma HB168 (antibody, V domains shown, also called nAb-72A1; mouse 72A1) VH: EVQLQQSGPELVKPGTSMKISCKASGSSFTDYTMNWMKQSHGKNLEWIGLINPYNGGTRYNQKFKGKATLTLDKSSSTAYMEVLSLTSEDSAVYYCAGGLRRVNWFAYWGQGTLVSVSA VL: QAVLTQESALTTSPGETVTLTCRSSTGAVTTSNYANWVQEKPDHLFTGLIGGTNNRVPGVPARFSGSLIGDKAALTITGAQTEDEAIYFCVLWHSNHWVFGGGTKLTVL
% inhibition of biotinylated nAbs: 94%

binder: HB5 (antibody, V domains shown, also called mHB5) VH: AELVRPGASVKISCKAFGYTFTNHNINWVKQRPGQGLDWIGYINPYNDYTSYNQKFKGKATLTVDKSSNTAYMELSSLTSEDSAVYYCARSEGWLRRGAWFAYWGQGTLVTVSA VL: AILSVSPGERVSFSCRASQSIGTSIHWYQQRTNDSPRLLIKYASESISGIPPRFSGSGSGTDFTLSINSVESEDIADYHCQQSNSWPMLTFGAGTKLELKR
% inhibition of biotinylated nAbs: 92%

Please turn your attention to the following entry.
[in] I have this binder here, HB11 (antibody, V domains shown) VH: PSLVKPSQTLSLTCSVTGDSITSGFWNWIRKFPGNKLEYMGYISYSGSTYYNPSLKSRISITRDTSKNQYYLQLNSVTTEDTATYYCARGNGGNYDWYFDVWGAGTTVTVSS VL: AIMSASLGEKVTMSCRASSSVNFMNWYQQKSDDSPKLLIYYISNLAPGVPARFSGSGSGNSYSLTISGMEGEDAATYYCQQFTSSPSWTFGGGTKLEIKR , and I need its recorded % inhibition of biotinylated nAbs.
[out] 89%
